System: Candida albicans A9540
Experiment: In vitro antifungal activity, serial agar dilution method (Table 1)
Assay type: cell-based
Settings: Candida albicans, A9540; Sabouraud dextrose agar (pH 7.0); 28°C for 40 hours
This listing pairs compounds with measured MIC.
READOUT_KIND: MIC (µg/mL)

- COc1cc(O)c2c(c1)C(=O)c1c(cc3c(c1O)-c1c(cc(C)c(C(=O)N[C@H](C)C(=O)O)c1O)[C@H](O[C@@H]1O[C@H](C)[C@H](N(C)C=O)[C@H](O[C@@H]4OC[C@@H](O)[C@H](O)[C@H]4O)[C@H]1O)[C@H]3O)C2=O: 25
- CN[C@@H]1[C@H](O[C@@H]2OC[C@@H](O)[C@H](O)[C@H]2O)[C@@H](O)[C@H](O[C@H]2c3cc(C)c(C(=O)N[C@H](C)C(=O)O)c(O)c3-c3c(cc4c(c3O)C(=O)c3cc(OC)cc(O)c3C4=O)[C@@H]2O)O[C@@H]1C [Pradimicin A, reference compound]: 50
- COc1cc(O)c2c(c1)C(=O)c1c(cc3c(c1O)-c1c(cc(C)c(C(=O)N[C@H](C)C(=O)O)c1O)[C@H](O[C@@H]1O[C@H](C)[C@H](NCS(=O)(=O)O)[C@H](O[C@@H]4OC[C@@H](O)[C@H](O)[C@H]4O)[C@H]1O)[C@H]3O)C2=O [Ex. 7, N-(sodiosulfomethyl) pradimicin C]: 3.1
- COc1cc(O)c2c(c1)C(=O)c1c(cc3c(c1O)-c1c(cc(C)c(C(=O)N[C@H](C)C(=O)O)c1O)[C@H](O[C@@H]1O[C@H](C)[C@H](N(C)C/C=C/C(=O)O)[C@H](O[C@@H]4OC[C@@H](O)[C@H](O)[C@H]4O)[C@H]1O)[C@H]3O)C2=O: 100
